Entry source: patent US7977352B2

The molecules listed here are annotated with their pIC50.
# experimental-system: TAK1-TAB1 fusion protein (Homo sapiens)
# Sequence (O43318 with tags, fused parts or gaps limits assumed): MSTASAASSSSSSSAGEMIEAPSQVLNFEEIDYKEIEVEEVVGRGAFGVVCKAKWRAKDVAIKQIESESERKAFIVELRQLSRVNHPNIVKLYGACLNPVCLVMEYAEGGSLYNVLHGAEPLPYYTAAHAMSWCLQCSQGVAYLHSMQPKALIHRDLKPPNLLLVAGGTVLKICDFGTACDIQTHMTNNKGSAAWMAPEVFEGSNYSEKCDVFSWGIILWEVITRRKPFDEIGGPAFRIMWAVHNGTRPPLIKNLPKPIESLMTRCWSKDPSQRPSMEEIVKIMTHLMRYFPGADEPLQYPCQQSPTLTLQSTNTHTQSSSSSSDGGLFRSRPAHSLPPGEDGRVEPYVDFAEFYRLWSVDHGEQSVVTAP
# assay-method-text: In vitro TAK1 kinase assay
# run-conditions: casein substrate, [33P]-γ-ATP, 90 minutes at 30° C., semi-quantitative score, read-out: POTENCY TAK1 (MAP3K7)
pIC50: −log10 of the molar value.

>  <molecule>
O=C(NCc1cccnc1)c1ccc(Nc2ccc(-c3cc[nH]c(=O)c3)n3ncnc23)cc1 [Example 5]

>  <pIC50>
6.00 to 6.30

$$$$
>  <molecule>
CCC(CC)N1CCN(c2ccc(Nc3ccc(-c4cc[nH]c(=O)c4)n4ncnc34)cc2)CC1

>  <pIC50>
> 6.30

$$$$
>  <molecule>
CC(C)N1CCN(c2ccc(Nc3ccc(-c4cccc(C(N)=O)c4)n4ncnc34)cc2)CC1

>  <pIC50>
< 5.00

$$$$
>  <molecule>
O=C(NCc1cccnc1)c1ccc(Nc2ccc(-c3cn[nH]c3)n3ncnc23)cc1 [Example 3]

>  <pIC50>
6.00 to 6.30

$$$$

Now take the following molecule into account.
pIC50 on TAK1-TAB1 fusion protein (Homo sapiens) for CCN1CCN(c2ccc(Nc3ccc(-c4cc[nH]c(=O)c4)n4ncnc34)cc2)CC1 is > 6.30
